- target.entity: Catechol O-methyltransferase (Homo sapiens, UniProt P21964)
- Sequence (P21964 whole entry): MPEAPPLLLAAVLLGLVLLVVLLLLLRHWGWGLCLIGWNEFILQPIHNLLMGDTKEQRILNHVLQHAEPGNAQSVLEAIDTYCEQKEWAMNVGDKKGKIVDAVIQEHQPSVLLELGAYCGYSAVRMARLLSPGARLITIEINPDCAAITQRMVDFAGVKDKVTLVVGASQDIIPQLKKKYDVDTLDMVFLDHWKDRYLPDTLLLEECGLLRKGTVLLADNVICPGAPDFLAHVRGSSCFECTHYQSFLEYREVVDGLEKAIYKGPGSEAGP
- measurement.description: Inhibition of c-terminal hexa-His tagged human MB-COMT (unknown origin)
quantity.kind: IC50

cpd.smiles | target.entity | IC50
Cc1ccc(S(=O)(=O)c2ccc(O)c3ncccc23)cc1 | Catechol O-methyltransferase (Homo sapiens, UniProt P21964) | 20 nM

Which IC50 value is on record for `Oc1cccc2cccnc12` ?
3160 nM

Try `Cc1ccc(S(=O)(=O)c2cc(O)c3ncccc3c2)cc1` next.
1580 nM

Same lookup for `O=S(=O)(O)c1ccc(O)c2ncccc12` , please.
6310 nM

###

- measurement.description: Half life in rat at 1 mg/kg, iv or 3/10 mg/kg, po
- Format: ADME, organism-based
- condition.notes: in vivo
quantity.kind: log10 half-life (log10 of the value in h)
Note: values are log10 of half-life expressed in h.

cpd.smiles | log10 half-life
O=S(=O)(c1ccc(O)c2ncccc12)C1CCCC1 | -0.74
Cc1ccc(S(=O)(=O)c2cc(Cl)c(O)c3ncccc23)cc1 | -0.51
O=S(=O)(c1ccc(F)cc1)c1cc(Cl)c(O)c2ncccc12 | 0.95
O=S(=O)(c1ccc(F)cc1)c1cc(F)c(O)c2ncccc12 | 0.65
O=S(=O)(c1cc(F)c(O)c2ncccc12)C1CCCC1 | 0.89

Look up log10 half-life for this compound: `Cc1ccc(S(=O)(=O)c2cc(F)c(O)c3ncccc23)cc1`
-0.59

What do you have for `O=S(=O)(c1cc(Cl)c(O)c2ncccc12)N1CCCC1` ?
0.93

###

- measurement.description: Ratio of unbound drug level in CSF of Sprague-Dawley rat to unbound plasma concentration in Sprague-Dawley rat at 10 mg/kg, po after 4 hrs by ES-UPLC analysis
- Type: ADME, organism-based
- condition.notes: CSF and plasma
quantity.kind: Kp uu at 4 h

cpd.smiles | Kp uu at 4 h
O=S(=O)(c1cc(F)c(O)c2ncccc12)C1CCCC1 | 7.3
O=S(=O)(c1cc(F)c(O)c2ncccc12)N1CCCC1 | 3.3

Consider the additional compound presented here.
Tell me the measured Kp uu at 4 h of `O=S(=O)(c1ccc(F)cc1)c1cc(F)c(O)c2ncccc12` , please.
1.2

###

- measurement.description: Fraction unbound in rat plasma by equilibrium dialysis
- Format: ADME, cell-free
Catalogue of Fu values

Below, 6 compounds whose answers are already recorded.
cpd.smiles | Fu
O=S(=O)(c1ccc(C(F)(F)F)cc1)c1cc(F)c(O)c2ncccc12 | 0.6
O=S(=O)(c1cc(Cl)c(O)c2ncccc12)C1CCCC1 | 0.5
O=S(=O)(c1cc(F)c(O)c2ncccc12)N1CCCC1 | 0.6
O=S(=O)(c1cc(F)c(O)c2ncccc12)C1CCCC1 | 0.2
O=S(=O)(c1ccc(O)c2ncccc12)C1CCCC1 | 0.5
O=S(=O)(c1cc(Cl)c(O)c2ncccc12)N1CCCC1 | 0.5

Note: attention shifts to another entry.
For the compound `O=S(=O)(c1ccc(F)cc1)c1cc(Cl)c(O)c2ncccc12` , what Fu is on record?
0.5
